Values from the supplement of paper PMC13380429

- Test system: HepG2
- ASSAY_COMMENT: relative viability EC50 (midpoint between 100% and the lowest measured viability); higher = less toxic
- CONDITION_CONTEXT: 72 h
PROPERTY_NAME: relative viability EC50 (µM)

MOLECULE	PROPERTY_NAME	UNIT_SYMBOL	RESULT_OPERATOR	QUANTITATIVE_RESULT
COc1ccccc1N1CCN(CCn2c(=O)[nH]c3c([nH]c4ccccc43)c2=O)CC1 [3-MPPI]	relative viability EC50	µM	>	10
CC(C)=CC[C@@H](O)C1=CC(=O)c2c(O)ccc(O)c2C1=O [Shikonin]	relative viability EC50	µM	=	0.313
N=C(N)NCCN1CCCCCCC1 [guanethidine]	relative viability EC50	µM	>	10
C[C@@H]1NC(C)(C)CO[C@@]1(O)c1cccc(Cl)c1 [radafaxine]	relative viability EC50	µM	>	10
CCCCCCCCCCCCCCCC[n+]1ccccc1 [cetylpyridinium]	relative viability EC50	µM	=	0.929

----------
Measured cell viability of individual entries
- Tested on: Caco-2
- ASSAY_COMMENT: cell viability relative to DMSO; higher = less toxic
- CONDITION_CONTEXT: 72 h; 1000 nM

COMPOUND	cell viability / %
C=CC[C@]1(O)CC[C@H]2[C@@H]3CCC4=CCCC[C@@H]4[C@H]3CC[C@@]21C [allylestrenol]	102
c1cn2cc(-c3ccc4cn[nH]c4c3)nc(Nc3ccc(N4CCOCC4)cc3)c2n1 [GS-9973]	99.7
NP(N)(=O)NC(=O)c1ccc(F)cc1 [flurofamide]	94.7
CN(C)CCCOc1nn(Cc2ccccc2)c2ccccc12 [benzydamine]	80.3
CC1(C)O[C@@H]2[C@@H](CO[C@@]3(COS(N)(=O)=O)OC(C)(C)O[C@@H]23)O1 [topiramate]	112
CC(C)c1ccc(C(=O)c2cccs2)c(SCCCCCCCCN(C)C)n1	94.6
CC(NC(C)(C)C)C(=O)c1cccc(Cl)c1 (centres undefined) [bupropion]	105
C=CCc1ccc(O)c(-c2cc(CC=C)ccc2O)c1 [magnolol]	102
Oc1ccc(C(O)CNCCCCCCNCC(O)c2ccc(O)c(O)c2)cc1O (centres undefined) [hexoprenaline]	95.9

----------
- Test system: Vero E6
- ASSAY_COMMENT: cell viability relative to DMSO; higher = less toxic
- CONDITION_CONTEXT: 72 h; 1000 nM
Where a name gives a salt, the structure may show the parent alone.
Doc: threshold 90% (exclusive). Items with cell viability beneath it return Met; others return Not met.

COMPOUND	CAT
C[S+](CC[C@H](N)C(=O)O)C[C@H]1O[C@@H](n2cnc3c(N)ncnc32)[C@H](O)[C@@H]1O (stereo partly specified) [ademetionine]	Not met
CC(c1cc2ccccc2s1)N(O)C(N)=O (stereo unspecified) [zileuton]	Not met
Cc1c(F)cccc1NC(=O)Nc1ccc(Cl)c(S(=O)(=O)[C@H]2CCCNC2)c1O [danirixin]	Not met
O=C(NCCO)c1cccc(-c2cc(Nc3ccc(OC(F)(F)F)cc3)ncn2)c1 [GNF-5]	Not met
Cc1cc(C(=O)N2Cc3cnn(C)c3Nc3ccccc32)ccc1CNC(=O)N1CCC[C@H]1C(=S)N1CCCN(C)CC1 [TC-OT-39]	Not met
O=C1C[C@@H](c2ccc(O)cc2)Oc2cc(O)cc(O)c21 [naringenin]	Not met
CO/N=C(\C(=O)N[C@@H]1C(=O)N2C(C(=O)O)=C(CSC(=O)c3ccco3)CS[C@H]12)c1csc(N)n1 [CEFTIOFUR HYDROCHLORIDE]	Not met
O=c1[nH]c2cc(C(F)(F)F)c(N3CCOCC3)cc2n(CP(=O)(O)O)c1=O	Not met
Clc1ccc(C(Cn2ccnc2)OCc2c(Cl)cccc2Cl)c(Cl)c1 (stereo unspecified) [isoconazole]	Not met
CCOC(=O)[C@H](CCc1ccccc1)N[C@@H](C)C(=O)N1[C@H](C(=O)O)C[C@H]2CCCC[C@@H]21 [trandolapril]	Not met
COc1cccc(-c2cc(F)ccc2[C@H]2Cc3nc(N)nc(C)c3C(=O)N2)n1 [NVP-HSP990]	Met
CNC(=O)[C@H](Cc1ccccc1)NC(=O)[C@H](CC(C)C)[C@H](CSc1cccs1)C(=O)NO [batimastat]	Met
C[C@]12CCC(=O)C=C1CC[C@@H]1[C@@H]2C(=O)C[C@]2(C)C(=O)CC[C@@H]12 [adrenosterone]	Not met
CC(C)c1ccc(C(=O)c2cccs2)c(SCCCCCCCCN(C)C)n1	Not met
O=C(O)CC1CC(c2ccccc2)=NO1 (stereo unspecified) [VGX-1027]	Not met
COc1cc(OC)c(/C=C/S(=O)(=O)Cc2ccc(OC)c(OP(=O)(O)O)c2)c(OC)c1 [briciclib]	Met
COc1cccc(NC(=O)/C=C/c2ccc(Cl)cc2)c1	Not met
CCOC(=O)c1c(/C(C#N)=C\N)c2ccc(Cl)c(Cl)c2n1C [KH-CB19]	Not met
CN1C[C@@H](NS(=O)(=O)N(C)C)C[C@@H]2c3cccc4c3c(cn4C)C[C@H]21 [mesulergine]	Not met
c1ccc2oc(C3=NCCN3)cc2c1 [2-BFI]	Not met
CCOc1ccc(C(=O)OCCN(CC)CC)cc1 [parethoxycaine]	Not met
CC(C)=CC[C@@H](O)C1=CC(=O)c2c(O)ccc(O)c2C1=O [Shikonin]	Met
CCCc1c(OCCCOc2ccc(OCC(=O)O)cc2)ccc(C(C)=O)c1O	Not met
Cc1ncc(-c2csc(N=C(N)N)n2)[nH]1 [zaltidine]	Not met
